Below, each entry is listed alongside its reported Kd.
- tested_on: A*02:02
- procedure_summary: SPR; low fitting confidence

Some solved entries appear below for comparison.
AS170036 VL1VH1 (Fc fusion) QSALTQPRSVSGSPGQSVTISCAGTSSDVGSENYVSWYQQHPGKAPKLMIYQVNKRASGVPDRFSGSKSGNTASLTISGLQAEDEADYYCASYRSSDHNIVFGGGTKLTVLGGGGSGGGGSGGGGSEVQLVESGGGLVQPGGSLRLSCAASGFTFSSYAMSWVRQAPGKGLEWVSTINSGTGSPYYADSVKGRFTISRDNSKNTLYLQMNSLRAEDTAVYYCAKNFFDGSWFLGPPAMDYWGQGTLVTVSS; > 71 µM
AS179723 VL1g1VH1g1-N73Y (Fc fusion) QSVLTQPPSASGTPGQRVTISCSGSSNNIGGNYVNWYQQLPGTAPKLLIYDNKNRPSGVPDRFSGSKSGTSASLAISGLQSEDEADYYCASWDDSLSAVVFGGGTKLTVLGGGGSGGGGSGGGGSEVQLVESGGGLVQPGGSLRLSCAASGFTFLNYAMSWVRQAPGKGLEWVSSNSGAGSTYYADSVKGRFTISRDYSKNTLYLQMNSLRAEDTAVYYCAKGTNVGSWSSLHYWGQGTLVTVSS; > 77 µM
AS170036 (Fc fusion) QLVLTQPSSVSGTPGQTVTISCAGTSSDVGSENYVSWYRQLPGTAPKLLIYQVNKRASGIADRFSGSKSGNTASMTISGLQSADEADYYCASYRSSDHNIVFGGGTHLTVLGGGGSGGGGSGGGGSAVQLVESGGGLVQPGGSLRLSCTASGFTFSSYAMSWVRQAPGKGLEWVSTINSGTGSPYYADSVKGRFTISRDNAKNTLYLQLNSLKTEDTAMYYCAKNFFDGSWFLGPPAMDYWGKGTLVTISS; > 5 µM

Let me know recorded Kd for AS179732 VL1g1VH1g1-N73Y (Fc fusion) QSVLTQPPSASGTPGQRVTISCSGSSSNIGGNYVNWYQQLPGTAPKLLIYDNSNRASGVPDRFSGSKSGTSASLAISGLQSEDEADYYCASWDDSLSGAVFGGGTKLTVLGGGGSGGGGSGGGGSEVQLVESGGGLVQPGGSLRLSCAASGFTFLNYAMSWVRQAPGKGLEWVSSNSGAGSTYYADSVKGRFTISRDYSKNTLYLQMNSLRAEDTAVYYCAKGTNVGSWSSLHYWGQGTLVTVSS , thanks.
> 29 µM
